Target: T1, rat VPAC1 receptor (rat, UniProt P30083 31-459)
T1 sequence (looked up): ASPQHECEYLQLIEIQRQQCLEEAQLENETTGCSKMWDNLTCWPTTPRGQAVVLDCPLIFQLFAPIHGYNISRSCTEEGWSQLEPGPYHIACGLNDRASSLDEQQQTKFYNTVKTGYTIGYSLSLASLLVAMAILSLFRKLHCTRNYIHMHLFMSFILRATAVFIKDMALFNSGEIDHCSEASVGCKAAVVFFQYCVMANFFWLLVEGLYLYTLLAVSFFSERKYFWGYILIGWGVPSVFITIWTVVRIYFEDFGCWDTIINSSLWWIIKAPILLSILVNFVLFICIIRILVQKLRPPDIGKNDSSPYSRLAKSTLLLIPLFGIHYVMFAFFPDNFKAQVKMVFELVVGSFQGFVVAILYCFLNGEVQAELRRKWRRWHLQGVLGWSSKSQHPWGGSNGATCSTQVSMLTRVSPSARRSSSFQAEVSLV
Assay: cell-based or functional assay
Where no end group is shown, it is not given here. [ ]: non-standard residue; d: D form. The star is where a group is joined. Hexanoyl = CCCCCC(=O)*; Aib = CC(C)(N)C(=O)O
Class definitions on EC50 cAMP, DiscoveRx: bottom range = under 0.8 nM, center range = from 0.8 nM up to 5 nM, top range = 5 nM and over

>  <binder>
HSDAVFTDNYTXLRXQVAAXKYLQSIKNKRYGGPSSGAPPPS (N-terminal hexanoyl (C6); Orn at 12; Aib at 15, 20) [P344]

>  <group-label>
center range

$$$$
>  <binder>
Hexanoyl-HSDAVFTDQYTRLR[Aib]QVAA[Aib]KYLQSIKQKRYGGPSSGAPPPS (ends and bridges not checked) [P315]

>  <group-label>
center range

$$$$
>  <binder>
Hexanoyl-HSDAVFTDNYTRLRKQVAAKKYLQSIKNKKGGPSSGAPPPS [P121]

>  <group-label>
bottom range

$$$$
>  <binder>
Hexanoyl-HSDAVFTDNYTRLLAKLALQKYLQSIKNKRYGGPSSGAPPPS (also called VPAC2-P119) [P119]

>  <group-label>
bottom range

$$$$
>  <binder>
HSDAVFTDNYTXLRXQVAAXKYLQSIXNXXYGGPSSGAPPPS (N-terminal hexanoyl (C6); hR at 12, 27, 29, 30; Aib at 15, 20) [P338]

>  <group-label>
top range

$$$$
>  <binder>
Hexanoyl-HSDAVFTDNYTRLRKQVAAKKYLQSIKNGGPSSGAPPPS [P154]

>  <group-label>
center range

$$$$
>  <binder>
MHSDAVFTDNYTRLLAKLALQKYLQSIKNKRYGGPSSGAPPPS (N-terminal methionine added (M-)) [P140]

>  <group-label>
top range

$$$$
>  <binder>
Hexanoyl-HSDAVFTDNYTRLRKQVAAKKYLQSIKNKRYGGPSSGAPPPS (also called VPAC2-P31) [P31]

>  <group-label>
bottom range

$$$$
>  <binder>
Hexanoyl-HSDAVFTDNYTRL[Aib]KQVAAQKYLQSIKNKRYGGPSSGAPPPS (ends and bridges not checked) [P243]

>  <group-label>
top range

$$$$
>  <binder>
Hexanoyl-HSEAVFTENYTRLR[Aib]QVAA[Aib]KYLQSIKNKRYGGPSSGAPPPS (ends and bridges not checked) [P314]

>  <group-label>
top range

$$$$
>  <binder>
Hexanoyl-HSDAVFTDNYTRLR[Aib]QKAA[Aib]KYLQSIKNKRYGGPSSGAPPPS (ends and bridges not checked) [P323]

>  <group-label>
center range

$$$$
